- ASSAYED SYSTEM: T1, recombinant human CD63 extracellular loop 2 expressed with a C-terminal human Fc tag (human)
- T1 construct: also called hCD63 EC loop 2-hFc; human CD63 EC loop 2-Fc
- T1 sequence (chain, as listed by the source limits assumed): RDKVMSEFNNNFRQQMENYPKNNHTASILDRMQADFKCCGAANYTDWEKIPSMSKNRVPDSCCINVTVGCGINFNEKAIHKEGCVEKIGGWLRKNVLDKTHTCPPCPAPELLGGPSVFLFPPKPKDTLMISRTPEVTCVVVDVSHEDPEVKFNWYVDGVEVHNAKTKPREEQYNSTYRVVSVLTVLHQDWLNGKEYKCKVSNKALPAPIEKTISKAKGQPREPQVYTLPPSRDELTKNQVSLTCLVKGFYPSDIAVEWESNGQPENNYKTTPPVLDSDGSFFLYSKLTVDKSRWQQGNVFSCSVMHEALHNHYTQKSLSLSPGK
- TEST METHOD NOTES: SPR Biacore, mAb captured, 37C
Output label 1 for records whose t1/2 is lower than 20 min, label 0 for records at or above 20 min.

BINDER	LABEL VALUE
H1M12388N (antibody, V domains shown) VH: QVQLEESGGGVVKAGGSLRLSCAASGFTFSDYYINWIRQAPGKGLEWVSYINNGGYTIYYADSVKGRFTMSRDNAKNSVYLQMNGLRAEDTAFYYCVRDPRSYYGFDYWGQGTLVTVSS VL: DIQMTQSPSSLSASVGDRVTITCRASQSISRFLHWYQQKPGKAPKLLIYGASSLQSGVPSRFSGSGSGTDFTLTISTLQPEDFATYYCQQSYSTPPITFGQGTRLEIK	label 1
H1M12362N (antibody, V domains shown) VH: QVQLVESGGGLVKPGGSLRLSCAASGFIFSDYYINWIRQAPGKGLEWVSYTSSSGSTTYYEDSVKGRFTMSRDNARNLVYLQMNSLRAEDTAAYYCVRDLRYNDGLDVWGQGTTVTVSS VL: DILLTQSPSSLSASVGDRVTITCRASQSIRTYLNWYQQKPGRAPKLLVYAASSLQSGVPSRFSGSGSGTDFTLTISSLQPEDFATYFCQQSYDNPPITFGQGTRLAIK	label 1
H2M12454N (antibody, V domains shown, also called H2bM12454N) VH: QVQLVESGGGLVKPGGSLRLSCAVSGFTYTDYFMNWIRQAPGKGLEWVSYISNSGAIKYYADSVKGRFTISRDNAKNSLYLQMNGLRADDTAVYYCVRDPRSYYGFDYWGQGTLVTVSS VL: DIQMTQSPSSLSASVGDRVTITCRASQSISNFLNWYQQKPGKAPRLLIYGASNLQSGVPSRFSGGGSGTDFTLTISSLQPADFATYYCQQSFSNPPVTFGQGTRLEIN	label 1
H2M13022N (antibody, V domains shown, also called H2bM13022N) VH: QVQLVESGGGLVQPGGSLRLSCAASGFIFGDYYINWIRQAPGKGLQWVSYTSSSGSTTYYEDSVKGRFTMSRDNAKNLVYLQMNSLRAEDTAAYYCVRDLRYNDGLDVWGQGTTVIVSS VL: DILLTQSPSSLSAFVGDRVTITCRASQNIRTYLNWYQQKPGRAPKLLVYAASTLQSGVPSRFSGSGSGTDFTLTISSLQPEDFASYFCQQSYDNPPITFGQGTRLAIK	label 0
H1M12451N (antibody, V domains shown) VH: QVQLQESGPGLMKPSETLSLTCTVSGGSFSSYYWNWIRQSPGKGLEWIGYIRYSGDTNYKPSLKSRFTISIDTSKNLFSLRLKSVTAADTAVYYCARMGLGSDAFDIWGQGTMVTVSS VL: EIVLTQSPGTLSLSPGERATLSCRASQSVNNNYLAWYQQKPGQAPRLLIYGVFNRATNIPDRFSGSGSGTDFTLTISRLEPEDFAVYYCQQYGSSPWTFGQGTKVEIK	label 0
